measurement-target: human TLR7 (Homo sapiens, UniProt Q9NYK1)
Sequence (Q9NYK1 27-1049): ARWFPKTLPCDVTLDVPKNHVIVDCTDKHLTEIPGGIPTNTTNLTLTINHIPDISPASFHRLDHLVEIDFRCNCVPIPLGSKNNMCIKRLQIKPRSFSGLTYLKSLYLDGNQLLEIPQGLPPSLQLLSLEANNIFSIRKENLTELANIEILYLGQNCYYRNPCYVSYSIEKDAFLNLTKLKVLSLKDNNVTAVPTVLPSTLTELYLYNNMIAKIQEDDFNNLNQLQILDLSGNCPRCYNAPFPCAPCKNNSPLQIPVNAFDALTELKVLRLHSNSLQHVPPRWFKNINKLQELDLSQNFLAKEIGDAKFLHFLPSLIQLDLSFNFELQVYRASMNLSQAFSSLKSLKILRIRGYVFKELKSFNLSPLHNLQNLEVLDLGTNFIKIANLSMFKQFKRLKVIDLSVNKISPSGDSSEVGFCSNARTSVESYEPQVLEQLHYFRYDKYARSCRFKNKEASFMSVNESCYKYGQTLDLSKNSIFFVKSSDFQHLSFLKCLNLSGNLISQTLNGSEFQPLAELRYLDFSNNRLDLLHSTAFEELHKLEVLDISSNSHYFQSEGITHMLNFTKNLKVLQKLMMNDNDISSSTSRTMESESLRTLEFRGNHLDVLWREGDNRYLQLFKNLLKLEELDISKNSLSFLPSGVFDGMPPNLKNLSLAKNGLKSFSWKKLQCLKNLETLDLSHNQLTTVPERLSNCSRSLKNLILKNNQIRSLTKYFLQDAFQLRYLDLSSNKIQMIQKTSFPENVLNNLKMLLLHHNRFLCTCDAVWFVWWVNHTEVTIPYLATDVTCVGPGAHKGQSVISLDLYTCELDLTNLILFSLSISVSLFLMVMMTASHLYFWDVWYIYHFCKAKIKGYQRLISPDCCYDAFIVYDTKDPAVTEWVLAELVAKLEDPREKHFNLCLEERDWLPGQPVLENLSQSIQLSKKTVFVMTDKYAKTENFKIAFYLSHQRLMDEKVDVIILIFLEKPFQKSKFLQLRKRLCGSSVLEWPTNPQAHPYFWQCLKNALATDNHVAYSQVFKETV
assay-summary: TLR7 inhibition reporter assay (HEK-Blue SEAP)
condition-summary: HEK-Blue cells overexpressing human TLR7, gardiquimod 7.5 μM, 22 hour incubation
pIC50: −log10 of the molar value.
quantity-name: pIC50

Answered cases to consult:
CCN1CCC[C@H](n2c(=O)[nH]c3cc(-c4cc(C)c5ncnn5c4)c(C)cc32)C1; 6.84
COc1cc(-c2cc3[nH]c(=O)n([C@H]4CC[C@@H](NCC(C)(C)C)CC4)c3cc2C(C)C)cn2ncnc12; 9.10
COC1CN(C2CCC(n3c(=O)[nH]c4cc(-c5cn6ncnc6c(C)c5C)c(C(C)C)cc43)CC2)C1 (single isomer, unassigned) [Example 277]; 8.62

[1] CCC(CC)CN1CCC[C@H](n2c(=O)[nH]c3cc(-c4cc(OC)c5ncnn5c4)c(C(C)C)cc32)C1
[2] CCC(CC)CN1CCC[C@@H](n2c(=O)[nH]c3cc(-c4cc(OC)c5ncnn5c4)c(C(C)C)cc32)C1
[3] COCCNC1CCC(n2c(=O)[nH]c3cc(-c4cn5ncnc5c(OC)c4C)c(C(C)C)cc32)CC1 (centres unmarked) [Example 258]
Arrange items by their pIC50 values in increasing order. Put the labels in the requested order and list them out.
1, 3, 2

----------
measurement-target: human TLR8 (Homo sapiens)
Sequence (Q9NR97 27-1041): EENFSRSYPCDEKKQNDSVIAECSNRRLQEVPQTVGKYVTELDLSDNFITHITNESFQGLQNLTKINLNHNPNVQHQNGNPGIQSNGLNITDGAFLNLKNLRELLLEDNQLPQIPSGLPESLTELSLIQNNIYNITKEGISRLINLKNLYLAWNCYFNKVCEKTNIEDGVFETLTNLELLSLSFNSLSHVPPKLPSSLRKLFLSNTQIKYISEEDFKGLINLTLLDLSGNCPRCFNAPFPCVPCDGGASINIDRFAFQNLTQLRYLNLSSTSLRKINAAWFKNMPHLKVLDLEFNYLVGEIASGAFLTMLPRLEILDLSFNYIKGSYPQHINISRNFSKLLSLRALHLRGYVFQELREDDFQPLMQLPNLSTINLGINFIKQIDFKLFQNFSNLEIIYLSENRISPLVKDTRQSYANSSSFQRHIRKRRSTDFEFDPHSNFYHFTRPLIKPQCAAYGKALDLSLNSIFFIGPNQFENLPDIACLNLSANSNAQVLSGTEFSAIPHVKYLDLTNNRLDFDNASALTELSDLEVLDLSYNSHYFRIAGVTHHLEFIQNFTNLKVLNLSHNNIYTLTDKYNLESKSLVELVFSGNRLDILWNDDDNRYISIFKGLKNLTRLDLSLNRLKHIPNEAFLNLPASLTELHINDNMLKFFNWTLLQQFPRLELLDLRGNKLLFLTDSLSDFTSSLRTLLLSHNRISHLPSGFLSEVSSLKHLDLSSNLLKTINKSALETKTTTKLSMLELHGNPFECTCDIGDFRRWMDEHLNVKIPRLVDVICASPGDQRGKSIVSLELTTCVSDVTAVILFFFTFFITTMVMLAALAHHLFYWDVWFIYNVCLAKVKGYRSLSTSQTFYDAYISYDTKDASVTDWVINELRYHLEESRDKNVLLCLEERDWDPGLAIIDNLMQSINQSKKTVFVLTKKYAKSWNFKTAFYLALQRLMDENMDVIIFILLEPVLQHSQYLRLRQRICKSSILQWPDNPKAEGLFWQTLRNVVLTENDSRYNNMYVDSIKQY
assay-summary: TLR8 inhibition reporter assay (HEK-Blue SEAP)
condition-summary: HEK-Blue cells overexpressing human TLR8, R848 15.9 μM, 22 hour incubation
quantity-name: IC50 (nM)

COc1cc(-c2cc3[nH]c(=O)n(C4CCN(C)CC4)c3cc2C(C)C)cn2ncnc12 [Example 154]; 1.52

[I] COc1cc(-c2cc3[nH]c(=O)n([C@@H]4CCCN(CC5CCOCC5)C4)c3cc2C(C)C)cn2ncnc12 [Example 139]
[II] Cc1cc2c(cc1-c1cc(C)c3ncnn3c1)[nH]c(=O)n2[C@H]1CCCN(CC(N)=O)C1 [Example 92]
[III] Cc1cc2c(cc1-c1cc(C)c3ncnn3c1)[nH]c(=O)n2[C@H]1CC[C@@H](NCc2ncn(C)n2)CC1 [Example 33]
Which order do these items take when sorted by rising IC50? List them. When ranking, write the labels in the order the request describes.
I, III, II
(I: 1.27 nM, III: 10.9 nM, II: 177 nM)

----------
measurement-target: human TLR7 (Homo sapiens, UniProt Q9NYK1)
assay-summary: TLR7 inhibition reporter assay (HEK-Blue SEAP)
condition-summary: HEK-Blue cells overexpressing human TLR7, gardiquimod 7.5 μM, 22 hour incubation
pIC50: −log10 of the molar value.
quantity-name: pIC50

COc1cc(-c2cc3[nH]c(=O)n([C@@H]4CCCN(C5CCCOC5)C4)c3cc2C(C)C)cn2ncnc12 (single isomer, unassigned) [Example 219]; 10.30
COc1cc(-c2cc3[nH]c(=O)n([C@@H]4CCCN(C5CCOC5)C4)c3cc2C(C)C)cn2ncnc12 (stereo partly drawn) [Example 216]; 7.84
COc1cc(-c2cc3[nH]c(=O)n([C@H]4CCCN(CC(N)=O)C4)c3cc2C(C)C)cn2ncnc12 [Example 220]; 6.61
Cc1c(-c2cc3[nH]c(=O)n([C@@H]4CCCN(C(C)C)C4)c3cc2C(C)C)cn2ncnc2c1C [Example 145]; 8.43
COc1cc(-c2cc3[nH]c(=O)n([C@H]4CC[C@@H](N(C)C5CCOCC5)CC4)c3cc2C)cn2ncnc12 [Example 85]; 7.67
COCCNC1CCC(n2c(=O)[nH]c3cc(-c4cn5ncnc5c(OC)c4C)c(C(C)C)cc32)CC1 (stereo not drawn) [Example 257]; 8.16
Cc1c(-c2cc3[nH]c(=O)n(C4CCC(N5CCC6(CC5)COC6)CC4)c3cc2C(C)C)cn2ncnc2c1C (single isomer, unassigned) [Example 283]; 8.74
CCCN1CCC[C@@H](n2c(=O)[nH]c3cc(-c4cc(OC)c5ncnn5c4)c(C)cc32)C1 [Example 54]; 7.53

[P] COc1cc(-c2cc3[nH]c(=O)n(C4CCC(N5CCCC5)CC4)c3cc2C(C)C)cn2ncnc12 (stereo not drawn) [Example 232]
[Q] COc1cc(-c2cc3[nH]c(=O)n([C@@H]4CCCN(CC5CCCC5)C4)c3cc2C(C)C)cn2ncnc12 [Example 211]
Quick one: lower pIC50, P or Q ? Field: selected label. Fill in the label of the entry you choose.
P

[A] COc1cc(-c2cc3[nH]c(=O)n([C@H]4CCCN(C)C4)c3cc2C(C)C)cn2ncnc12 [Example 119]
[B] COc1cc(-c2cc3[nH]c(=O)n([C@H]4CC[C@@H](NC5COC5)CC4)c3cc2C)cn2ncnc12 [Example 59]
Compare A and B and name the one whose reported pIC50 is smaller. Bench note: the answer is the label of the chosen record.
B
(B: 7.17, A: 7.50)

[P] COc1cc(-c2cc3[nH]c(=O)n(C4CCN(C(=O)CN(C)C)CC4)c3cc2C)cn2ncnc12 [Example 100]
[Q] Cc1c(-c2cc3[nH]c(=O)n(C4CCC(N5CC6(COC6)C5)CC4)c3cc2C(C)C)cn2ncnc2c1C (single isomer, unassigned) [Example 298]
Between P and Q , whose recorded pIC50 is greater? Give the label under which the chosen entry appears.
Q

[I] COc1cc(-c2cc3[nH]c(=O)n(C4CCC(N5CCC(OC)C5)CC4)c3cc2C(C)C)cn2ncnc12 (stereo not drawn) [Example 284]
[II] COc1cc(-c2cc3[nH]c(=O)n([C@H]4CC[C@H](N(C)C)CC4)c3cc2C(C)C)cn2ncnc12 [Example 202]
[III] Cc1cc2c(cc1-c1cc(C)c3ncnn3c1)[nH]c(=O)n2[C@H]1CC[C@@H](NCCC(F)(F)F)CC1 [Example 31]
[IV] CCCN[C@H]1CC[C@@H](n2c(=O)[nH]c3cc(-c4cc(OC)c5ncnn5c4)c(C)cc32)CC1 [Example 64]
Your job: order these 4 records by pIC50, ascending. A ranking is expressed here by listing the labels in the requested order.
III, IV, II, I

[a] COc1cc(-c2cc3[nH]c(=O)n([C@H]4CC[C@H](NC(C)C)CC4)c3cc2C(C)C)cn2ncnc12 [Example 203]
[b] COc1cc(-c2cc3[nH]c(=O)n(C4CCC(N5CC(OC)C5)CC4)c3cc2C(C)C)cn2ncnc12 (stereo not drawn) [Example 237]
Min pIC50? a | b Lab log: write the label of the selected item as the result.
a
(a: 8.33, b: 8.88)

----------
measurement-target: UniProt:Q9NR96
Sequence (Q9NR96 26-1032): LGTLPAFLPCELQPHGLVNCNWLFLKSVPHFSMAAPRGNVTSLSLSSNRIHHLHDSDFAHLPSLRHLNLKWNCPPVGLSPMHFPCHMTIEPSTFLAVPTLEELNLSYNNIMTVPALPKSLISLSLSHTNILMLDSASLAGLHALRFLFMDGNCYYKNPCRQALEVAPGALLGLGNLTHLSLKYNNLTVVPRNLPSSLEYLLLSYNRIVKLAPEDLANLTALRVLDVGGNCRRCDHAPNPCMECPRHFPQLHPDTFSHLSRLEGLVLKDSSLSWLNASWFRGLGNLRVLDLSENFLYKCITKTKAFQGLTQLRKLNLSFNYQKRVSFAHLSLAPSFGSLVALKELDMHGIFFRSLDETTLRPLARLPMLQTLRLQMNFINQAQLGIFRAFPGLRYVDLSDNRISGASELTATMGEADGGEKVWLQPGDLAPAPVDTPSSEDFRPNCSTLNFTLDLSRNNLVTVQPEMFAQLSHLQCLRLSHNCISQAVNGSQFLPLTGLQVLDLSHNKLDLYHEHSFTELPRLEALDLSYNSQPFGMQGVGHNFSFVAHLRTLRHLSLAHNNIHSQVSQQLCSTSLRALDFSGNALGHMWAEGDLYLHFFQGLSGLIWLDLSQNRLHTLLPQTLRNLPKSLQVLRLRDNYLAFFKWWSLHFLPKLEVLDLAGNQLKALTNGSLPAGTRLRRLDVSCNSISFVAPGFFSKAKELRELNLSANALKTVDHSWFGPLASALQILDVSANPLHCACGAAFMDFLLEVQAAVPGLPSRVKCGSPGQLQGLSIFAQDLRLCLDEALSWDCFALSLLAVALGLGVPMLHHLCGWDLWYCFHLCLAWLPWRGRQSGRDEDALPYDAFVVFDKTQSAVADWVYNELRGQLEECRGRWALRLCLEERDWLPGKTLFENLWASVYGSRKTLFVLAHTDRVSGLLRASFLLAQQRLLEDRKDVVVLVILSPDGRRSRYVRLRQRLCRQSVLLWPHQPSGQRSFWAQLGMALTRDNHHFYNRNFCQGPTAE
assay-summary: TLR9 inhibition reporter assay (HEK-Blue SEAP)
condition-summary: HEK-Blue cells overexpressing human TLR9, ODN2006 5 nM, 22 hour incubation
pIC50: −log10 of the molar value.
quantity-name: pIC50

Cc1c(-c2cc3[nH]c(=O)n(C4CCC(N5CCCOCC5)CC4)c3cc2C(C)C)cn2ncnc2c1C (stereo not shown) [Example 271]; 5.09
Cc1cc2c(cc1-c1cc(C)c3ncnn3c1)[nH]c(=O)n2[C@H]1CC[C@H](N(C)C)CC1 [Example 23]; 5.25
COc1cc(-c2cc3[nH]c(=O)n([C@H]4CC[C@@H](NCC5CCOCC5)CC4)c3cc2C(C)C)cn2ncnc12 [Example 196]; 5.05
COc1cc(-c2cc3[nH]c(=O)n([C@H]4CC[C@@H](NCC(C)(C)C)CC4)c3cc2C(C)C)cn2ncnc12 [Example 197]; 5.20

[P] Cc1c(-c2cc3[nH]c(=O)n([C@H]4CC[C@@H](N(C)C)CC4)c3cc2C(C)C)cn2ncnc2c1C [Example 185]
[Q] COCCNC1CCC(n2c(=O)[nH]c3cc(-c4cn5ncnc5c(OC)c4C)c(C(C)C)cc32)CC1 (stereo not shown) [Example 258]
[R] CCc1cc2c(cc1-c1cc(OC)c3ncnn3c1)[nH]c(=O)n2[C@@H]1CCCN(CCC(C)(C)C)C1 [Example 208]
Exam item: list the entries in increasing order of pIC50. Please respond by ranking the labels in the order requested.
Q, P, R
(Q: 4.61, P: 5.15, R: 5.48)

Data credit: patent US12187723B2
